Record form. Attribute: protein stability index. Fill in for each entry.
B1: ATL3 (parent)
chain: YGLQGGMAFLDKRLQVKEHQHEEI

- Variants of: B1
- ASSAY_INFO: protein stability index of a GFP-peptide fusion (GPS, HEK-293T) (PSI 1-6); higher = more stable;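 note: lentivirally expressed fusions sorted by FACS into six bins by GFP to DsRed ratio, PSI derived from sequencing read proportions per bin multiplied by bin number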
- CONDITION_CONTEXT: c terminus: a fixed tail appended
One number for each entry.

VARIANT_DESCRIPTOR	READING
V16Q	3.13
K12I	3.88

Please give protein stability index, item by item, for the list that follows.
1. Q15K
2. Q4T

Response:
1. 2.54
2. 1.89

Please give protein stability index, item by item, for the list that follows.
1. E23A
2. M7S

Response:
[1.94, 2.05]

Please give protein stability index, item by item, for the list that follows.
1. E22T
2. Q15V
3. Q20Y

Response:
1.9
2.9
2.58

Please give protein stability index, item by item, for the list that follows.
1. G5V
2. V16F
3. Q20A
4. Q15N
5. A8S

Response:
[2.28, 2.5, 2.87, 1.79, 2.09]
